ASSAYED_SYSTEM: Glucocorticoid receptor (Homo sapiens, UniProt P04150)
Sequence (P04150 whole entry): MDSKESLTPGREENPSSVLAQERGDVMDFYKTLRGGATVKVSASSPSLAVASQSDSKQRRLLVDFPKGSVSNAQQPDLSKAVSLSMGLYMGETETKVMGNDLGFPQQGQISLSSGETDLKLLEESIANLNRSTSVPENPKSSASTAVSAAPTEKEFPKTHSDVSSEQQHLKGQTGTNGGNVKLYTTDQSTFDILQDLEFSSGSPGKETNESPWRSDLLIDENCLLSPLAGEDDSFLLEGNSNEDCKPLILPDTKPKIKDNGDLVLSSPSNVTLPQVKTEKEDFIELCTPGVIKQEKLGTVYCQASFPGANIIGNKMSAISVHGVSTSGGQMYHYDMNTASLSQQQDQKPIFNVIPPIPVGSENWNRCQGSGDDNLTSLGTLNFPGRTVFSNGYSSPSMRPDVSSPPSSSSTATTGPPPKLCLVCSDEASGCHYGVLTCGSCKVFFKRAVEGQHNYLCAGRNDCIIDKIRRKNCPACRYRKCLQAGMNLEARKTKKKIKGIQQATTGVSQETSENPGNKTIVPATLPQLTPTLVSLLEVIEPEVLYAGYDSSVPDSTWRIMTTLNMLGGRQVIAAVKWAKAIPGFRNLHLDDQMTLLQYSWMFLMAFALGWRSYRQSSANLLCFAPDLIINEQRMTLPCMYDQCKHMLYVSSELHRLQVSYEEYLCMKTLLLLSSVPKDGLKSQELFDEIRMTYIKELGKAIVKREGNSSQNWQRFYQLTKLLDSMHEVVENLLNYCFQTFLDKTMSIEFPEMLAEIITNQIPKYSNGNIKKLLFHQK
PROTOCOL_TEXT: Transactivation activity at glucocorticoid receptor in human HepG2 cells assessed as induction of tyrosine aminotransferase
Format: ADME, cell-based
QUANTITY_KIND: pIC50
Please treat pIC50 as minus the base-10 logarithm of the molar concentration.

Worked cases, answers included:
{"COMPOUND_STRUCTURE": "C[C@]12Cc3cnn(C4CCCCC4)c3C=C1CC[C@@H]1[C@@H]2[C@@H](O)C[C@@]2(C)[C@H]1CC[C@]2(O)C(=O)CSc1ncccn1", "pIC50": 6.00}
{"COMPOUND_STRUCTURE": "C[C@]12Cc3cnn(-c4ccc(F)cc4)c3C=C1CC[C@@H]1[C@@H]2[C@@H](O)C[C@@]2(C)[C@H]1CC[C@]2(O)C(=O)CSc1nc2ccccc2c(=O)[nH]1", "pIC50": 7.03}

--- query ---
Prompt: Sample `C[C@]12Cc3cnn(-c4ccc(F)cc4)c3C=C1CC[C@@H]1[C@@H]2[C@@H](O)C[C@@]2(C)[C@H]1CC[C@]2(O)C(=O)CSc1ncccn1` — what was its pIC50?
Response: 7.42

* * *

PROTOCOL_TEXT: Cmax in po dosed rat
Type: ADME, organism-based
Parameters: route oral
CONDITION_INFO: in vivo
# note: exactly 200 ng/mL is not below, so it is label 0; use label 1 for Cmax strictly under it

Below, 3 molecules whose answers are already recorded.
{"COMPOUND_STRUCTURE": "C[C@]12Cc3cnn(-c4ccccc4)c3C=C1CC[C@@H]1[C@@H]2[C@@H](O)C[C@@]2(C)[C@H]1CC[C@]2(O)C(=O)CSc1cnc2ccccc2n1", "CLASS_ASSIGNMENT": "label 1"}
{"COMPOUND_STRUCTURE": "C[C@]12Cc3cnn(-c4ccccc4)c3C=C1CC[C@@H]1[C@@H]2[C@@H](O)C[C@@]2(C)[C@H]1CC[C@]2(O)C(=O)CO", "CLASS_ASSIGNMENT": "label 0"}
{"COMPOUND_STRUCTURE": "C[C@]12C=CC(=O)C=C1CC[C@@H]1[C@@H]2[C@@H](O)C[C@@]2(C)[C@H]1CC[C@]2(O)C(=O)CO", "CLASS_ASSIGNMENT": "label 0"}

Prompt: Please check: Cmax for `C[C@]12Cc3cnn(-c4ccc(F)cc4)c3C=C1CC[C@@H]1[C@@H]2[C@@H](O)C[C@@]2(C)[C@H]1CC[C@]2(O)C(=O)CO` , strictly under 200 ng/mL or not?
Response: label 0

Prompt: And what about the molecule `Cn1c(SCC(=O)[C@@]2(O)CC[C@@]3(C)[C@@H]4CCC5=CC(=O)CC[C@]5(C)[C@H]4[C@@H](O)C[C@@]32C)nc2ccccc21` ?
Response: label 1

Prompt: And what about the molecule `C[C@]12Cc3cnn(-c4ccccc4)c3C=C1CC[C@@H]1[C@@H]2[C@@H](O)C[C@@]2(C)[C@H]1CC[C@]2(O)C(=O)CSc1nc2ncccc2o1` ?
Response: label 0

* * *

ASSAYED_SYSTEM: Glucocorticoid receptor (Homo sapiens)
PROTOCOL_TEXT: Transrepression activity at glucocorticoid receptor in human H292 cells assessed as inhibition of TNF-induced IL8 production
Format: cell-based
# note: exactly 30 nM is not below, so it is 0 (no); use 1 (yes) for IC50 strictly under it

Prompt: Please check: IC50 for `C[C@]12CCC(=O)C=C1CC[C@@H]1[C@@H]2[C@@H](O)C[C@@]2(C)[C@H]1CC[C@]2(O)C(=O)CSc1nc2ccccc2o1` , strictly under 30 nM or not?
Response: 1 (yes)

Prompt: And what about the compound `Cc1nc(SCC(=O)[C@@]2(O)CC[C@H]3[C@@H]4CCC5=Cc6c(cnn6C6CCCCC6)C[C@]5(C)[C@H]4[C@@H](O)C[C@@]32C)sc1C` ?
Response: 1 (yes)

Prompt: And what about the compound `Cn1c(OCC(=O)[C@@]2(O)CC[C@H]3[C@@H]4CCC5=Cc6c(cnn6-c6ccc(F)cc6)C[C@]5(C)[C@H]4[C@@H](O)C[C@@]32C)nc2ccccc21` ?
Response: 1 (yes)

Prompt: And what about the compound `C[C@]12Cc3cnn(-c4ccccc4)c3C=C1CC[C@@H]1[C@@H]2[C@@H](O)C[C@@]2(C)[C@H]1CC[C@]2(O)C(=O)CSc1cnc2ccccc2n1` ?
Response: 1 (yes)

Prompt: And what about the compound `C[C@]12CCC(=O)C=C1CC[C@@H]1[C@@H]2[C@@H](O)C[C@@]2(C)[C@H]1CC[C@]2(O)C(=O)CSc1nc2ncccc2s1` ?
Response: 0 (no)

Prompt: And what about the compound `C[C@]12Cc3cnn(-c4ccc(F)cc4)c3C=C1CC[C@@H]1[C@@H]2[C@@H](O)C[C@@]2(C)[C@H]1CC[C@]2(O)C(=O)CO` ?
Response: 1 (yes)

* * *

ASSAYED_SYSTEM: Glucocorticoid receptor (Homo sapiens)
PROTOCOL_TEXT: Transrepression activity at glucocorticoid receptor in human H292 cells assessed as inhibition of TNF-induced IL8 production
Format: cell-based
Each entry below carries its reported pIC50.
Please treat pIC50 as minus the base-10 logarithm of the molar concentration.

{"COMPOUND_STRUCTURE": "C[C@]12Cc3cnn(-c4ccc(F)cc4)c3C=C1CC[C@@H]1[C@@H]2[C@@H](O)C[C@@]2(C)[C@H]1CC[C@]2(O)C(=O)CSc1ccc2ccccc2n1", "pIC50": 8.28}
{"COMPOUND_STRUCTURE": "C[C@]12Cc3cnn(-c4ccc(F)cc4)c3C=C1CC[C@@H]1[C@@H]2[C@@H](O)C[C@@]2(C)[C@H]1CC[C@]2(O)C(=O)CSc1nccc2ccccc12", "pIC50": 8.80}
{"COMPOUND_STRUCTURE": "C[C@]12CCC(=O)C=C1CC[C@@H]1[C@@H]2[C@@H](O)C[C@@]2(C)[C@H]1CC[C@]2(O)C(=O)CSc1nc2ncccc2o1", "pIC50": 7.21}

Prompt: Sample `Cc1cccc(SCC(=O)[C@@]2(O)CC[C@H]3[C@@H]4CCC5=CC(=O)CC[C@]5(C)[C@H]4[C@@H](O)C[C@@]32C)n1` — what was its pIC50?
Response: 6.90

* * *

ASSAYED_SYSTEM: Glucocorticoid receptor (Homo sapiens)
PROTOCOL_TEXT: Transrepression activity at glucocorticoid receptor in human H292 cells assessed as inhibition of TNF-induced IL8 production
Format: cell-based
# note: exactly 20 nM is not below, so it is not satisfied; use satisfied for IC50 strictly under it

Below, 6 compounds whose answers are already recorded.
{"COMPOUND_STRUCTURE": "C[C@]12Cc3cnn(C4CCOCC4)c3C=C1CC[C@@H]1[C@@H]2[C@@H](O)C[C@@]2(C)[C@H]1CC[C@]2(O)C(=O)CSc1nc2ccccc2s1", "CLASS_ASSIGNMENT": "not satisfied"}
{"COMPOUND_STRUCTURE": "C[C@]12Cc3cnn(-c4ccc(F)cc4)c3C=C1CC[C@@H]1[C@@H]2[C@@H](O)C[C@@]2(C)[C@H]1CC[C@]2(O)C(=O)CSc1ncccn1", "CLASS_ASSIGNMENT": "satisfied"}
{"COMPOUND_STRUCTURE": "C[C@]12Cc3cnn(C4CCCCC4)c3C=C1CC[C@@H]1[C@@H]2[C@@H](O)C[C@@]2(C)[C@H]1CC[C@]2(O)C(=O)CSc1cnc2ccccc2n1", "CLASS_ASSIGNMENT": "satisfied"}
{"COMPOUND_STRUCTURE": "C[C@]12CCC(=O)C=C1CC[C@@H]1[C@@H]2[C@@H](O)C[C@@]2(C)[C@H]1CC[C@]2(O)C(=O)CSc1nnc(-c2ccccc2)o1", "CLASS_ASSIGNMENT": "not satisfied"}
{"COMPOUND_STRUCTURE": "C[C@]12CCC(=O)C=C1CC[C@@H]1[C@@H]2[C@@H](O)C[C@@]2(C)[C@H]1CC[C@]2(O)C(=O)CSc1cnc2ccccc2n1", "CLASS_ASSIGNMENT": "not satisfied"}
{"COMPOUND_STRUCTURE": "C[C@]12Cc3cnn(-c4ccc(F)cc4)c3C=C1CC[C@@H]1[C@@H]2[C@@H](O)C[C@@]2(C)[C@H]1CC[C@]2(O)C(=O)COc1nc2ccccc2s1", "CLASS_ASSIGNMENT": "satisfied"}

Proceed to the following item.
Prompt: Please check: IC50 for `C[C@]12Cc3cnn(-c4ccc(F)cc4)c3C=C1CC[C@@H]1[C@@H]2[C@@H](O)C[C@@]2(C)[C@H]1CC[C@]2(O)C(=O)COc1ccc2ccccc2c1` , strictly under 20 nM or not?
Response: satisfied
